test.target: rat TAAR1 (Rattus norvegicus (Rat), UniProt Q923Y9)
Sequence (Q923Y9 whole entry): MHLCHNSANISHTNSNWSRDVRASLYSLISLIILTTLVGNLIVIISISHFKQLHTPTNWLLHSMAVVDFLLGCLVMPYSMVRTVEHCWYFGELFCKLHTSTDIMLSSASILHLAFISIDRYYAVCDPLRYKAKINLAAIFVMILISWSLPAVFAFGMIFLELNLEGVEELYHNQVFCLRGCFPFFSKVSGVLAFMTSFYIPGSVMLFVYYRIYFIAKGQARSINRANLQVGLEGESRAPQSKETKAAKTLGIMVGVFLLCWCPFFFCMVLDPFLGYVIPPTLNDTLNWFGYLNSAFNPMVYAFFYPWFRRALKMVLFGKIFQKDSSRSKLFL
assay.remarks: Radioligand binding assay on rat TAAR1
recorded.conditions: rat TAAR1, HEK-293 membranes, second value of cell mouse/rat; read-out: Ki (μM) rat
Structures can show the parent of a compound that is named as a salt.
reported.metric: Ki (µM)

A: O=C(O)c1ccc(COc2ccc(C(=O)Nc3ccc(C4CNCCO4)cc3)cc2)cc1 (racemic) [Example 212, hydrochloride]
B: Cc1cc(C(=O)Nc2ccc(C3CNCCO3)cc2)cc(C)n1 (racemic) [Example 295, dihydrochloride]
[in] Between these two entries, A and B , state which has the higher Ki. Which one? Tell me its label.
[out] B

P: CC(CO)(CCl)COc1ccc(C(=O)Nc2ccc(C3CNCCO3)cc2)cc1 (racemic)
Q: O=C(Nc1ccc(C2CCNC2)cc1)c1ccc2ccccc2n1 (racemic) [Example 84, hydrochloride]
[in] Which has the smaller recorded Ki, P or Q ? Please respond with the label that marks your chosen entry.
[out] P

====

test.target: rat TAAR1 (Rattus norvegicus (Rat), UniProt Q923Y9)
assay.remarks: Radioligand binding assay on rat TAAR1
recorded.conditions: read-out: Ki (μM) rat
Structures can show the parent of a compound that is named as a salt.
reported.metric: Ki (µM)
Kindly answer with a numeric value in µM, unit omitted.

Look over these answered cases.
{"columns": ["compound", "test.target", "units.label", "Ki"],
 "data": [
  ["C[C@H]1CO[C@@H](c2ccc(NC(=O)c3cccc(Cl)c3)cc2)CN1 [Example 322, hydrochloride]", "rat TAAR1 (Rattus norvegicus (Rat), UniProt Q923Y9)", "µM", 0.0017],
  ["CCOc1ccc(C(=O)Nc2ccc([C@@H]3CNCCO3)cc2)cc1 [Example 275, hydrochloride]", "rat TAAR1 (Rattus norvegicus (Rat), UniProt Q923Y9)", "µM", 0.0036],
  ["O=C(Nc1ccc(C2CNCCO2)cc1)c1ccc(OCC(F)(F)F)nc1 (racemic) [Example 222, hydrochloride]", "rat TAAR1 (Rattus norvegicus (Rat), UniProt Q923Y9)", "µM", 0.0033]
]}

[in] Please report the recorded Ki for O=C(Nc1ccc([C@@H]2CNCCO2)cc1)c1ccc(OCC(F)(F)F)nc1 [Example 268, hydrochloride] .
[out] 0.0024

====

test.target: rat TAAR1 (Rattus norvegicus (Rat))
assay.remarks: Radioligand binding assay on rat TAAR1
recorded.conditions: rat TAAR1, HEK-293 membranes, second value of cell mouse/rat; read-out: Ki (μM) rat
Counter-ions that a name gives are not always drawn.
reported.metric: Ki (µM)

Some solved cases for reference:
{"columns": ["molecule", "Ki / µM"],
 "data": [
  ["O=C(Nc1ccc(C2CNCCO2)cc1)Nc1cccc(Cl)c1 (racemic) [Example 303, hydrochloride]", 0.0005],
  ["O=C(Nc1ccc(C2CNCCO2)cc1)c1ccc(O)cc1 (racemic) [Example 199, hydrochloride]", 0.238],
  ["COc1cc(C(=O)Nc2ccc([C@@H]3CCCNC3)cc2)ccc1Cl [Example 201, hydrochloride]", 0.0022]
]}

P: CSc1cnc(C(=O)Nc2ccc([C@@H]3CCCNC3)cc2)cn1 [Example 257]
Q: COc1cc(C(=O)Nc2ccc(C3CCNC3)cc2)nc2ccccc12 (racemic) [Example 90, hydrochloride]
R: CCSc1ccc(C(=O)Nc2ccc([C@@H]3CCCNC3)cc2)cc1 [Example 237, hydrochloride]
[in] Falling order of Ki, please. // list labels; follow requested order
[out] Q, P, R
(Q: 0.0101 µM, P: 0.004 µM, R: 0.0008 µM)

====

test.target: rat TAAR1 (Rattus norvegicus (Rat), UniProt Q923Y9)
assay.remarks: Radioligand binding assay on rat TAAR1
recorded.conditions: rat TAAR1, HEK-293 membranes, second value of cell mouse/rat; read-out: Ki (μM) rat
Where a name gives a salt, the structure may show the parent alone.
reported.metric: Ki (µM)

# count of solved cases: 2
{"columns": ["compound", "reading"],
 "data": [
  ["O=C(Nc1ccc(C2CCN(Cc3ccccc3)C2)cc1)c1ccc(Cl)cc1 (racemic) [Example 34]", 0.214],
  ["O=C(Nc1ccc(C2CCCNC2)cc1)c1ccc(Cl)cc1F (racemic) [Example 100, hydrochloride]", 0.0308]
]}

A: CCSc1cccc(C(=O)Nc2ccc([C@@H]3CCCNC3)cc2)c1 [Example 246]
B: CC(C(=O)Nc1ccc(C2CCNC2)cc1)c1cccc(C(=O)c2ccccc2)c1 (racemic) [Example 64]
[in] Would you mind telling me which has the lower recorded Ki between A and B ? Give the label under which the chosen entry appears.
[out] A
(A: 0.0012 µM, B: 0.0215 µM)

====

test.target: UniProt:Q923Y9
assay.remarks: Radioligand binding assay on rat TAAR1
recorded.conditions: rat TAAR1, HEK-293 membranes, second value of cell mouse/rat; read-out: Ki (μM) rat
Where a name gives a salt, the structure may show the parent alone.
reported.metric: Ki (µM)

Examples from the recorded data:
{"columns": ["molecule", "reported.metric", "units.label", "reading"],
 "data": [
  ["O=C(Nc1ccc(CCC2CCNC2)cc1)c1ncccc1F (racemic) [Example 132, hydrochloride]", "Ki", "µM", 0.141],
  ["O=C(Nc1ccc(C2CNCCO2)cc1)c1ccn(-c2ccccc2)n1 (racemic) [Example 299, hydrochloride]", "Ki", "µM", 0.0014],
  ["O=C(Nc1ccc(C2CCNC2)cc1)c1ccc(Cl)c(Cl)c1 (racemic) [Example 56, hydrochloride]", "Ki", "µM", 0.0018],
  ["O=C(Nc1ccc([C@@H]2CCCNC2)cc1)c1cnc(C(F)(F)F)cn1 [Example 248, hydrochloride]", "Ki", "µM", 0.0143],
  ["O=C(Nc1ccc([C@H]2CCNC2)cc1)c1ccc(OCC(F)(F)F)nc1 [Example 204, hydrochloride]", "Ki", "µM", 0.0043]
]}

P: Cc1ccc(C(=O)Nc2ccc([C@@H]3CCCNC3)cc2)cn1 [Example 243, hydrochloride]
Q: O=C(Nc1ccc(C2CCNC2)cc1)OCCc1ccc(C(F)(F)F)cc1 (racemic)
R: CN1CCN(c2ccc(NC(=O)Nc3ccc(-c4cnco4)cc3)cc2)CC1
[in] Thanks in advance: please rank these 3 entries by Ki, highest to lowest. Output the labels ranked as instructed.
[out] R, P, Q
(R: 0.0837 µM, P: 0.0062 µM, Q: 0.0011 µM)

====

test.target: mouse TAAR1 (Mus musculus (Mouse), UniProt Q923Y8)
Sequence (Q923Y8 whole entry): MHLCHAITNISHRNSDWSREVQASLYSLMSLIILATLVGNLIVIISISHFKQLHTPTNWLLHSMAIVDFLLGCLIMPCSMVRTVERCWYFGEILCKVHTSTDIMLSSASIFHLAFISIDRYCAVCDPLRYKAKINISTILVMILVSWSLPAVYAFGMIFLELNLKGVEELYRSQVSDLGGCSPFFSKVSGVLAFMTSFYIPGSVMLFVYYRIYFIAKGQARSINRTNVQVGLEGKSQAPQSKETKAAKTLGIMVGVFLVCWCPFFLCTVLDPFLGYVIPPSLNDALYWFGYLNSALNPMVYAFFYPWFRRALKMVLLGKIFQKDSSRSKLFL
assay.remarks: Radioligand binding assay on mouse TAAR1
recorded.conditions: mouse TAAR1, HEK-293 membranes, first value of cell mouse/rat; read-out: Ki (μM) mouse
Counter-ions that a name gives are not always drawn.
reported.metric: Ki (µM)

{"columns": ["compound", "reported.metric", "reading"],
 "data": [
  ["O=C(Nc1ccc(CCC2CCCCN2)cc1)c1ccc(Cl)nc1 (racemic) [Example 173, hydrochloride]", "Ki", 0.824]
]}

P: O=C(Nc1ccc(C2CCNC2)cc1)OCCc1ccc(Cl)c(Cl)c1 (racemic)
Q: O=C(Nc1ccc(C2CCCNC2)cc1)c1ccc(Cl)cc1 (racemic) [Example 58, hydrochloride]
R: O=C(Nc1ccc(C2CNCCO2)cc1)c1cnc(Cl)c(Cl)c1 (racemic) [Example 219, hydrochloride]
S: CCc1ccc(C(=O)Nc2ccc([C@@H]3CCCNC3)cc2)cn1
[in] Exam item: list the entries in increasing order of Ki. Provide the ranking by listing each label in its place in the requested order.
[out] Q, P, R, S
(Q: 0.0007 µM, P: 0.0019 µM, R: 0.0059 µM, S: 0.018 µM)

I: O=C(Nc1ccc(C2CCCNC2)cc1)c1ccc(F)cn1 (racemic) [Example 180, hydrochloride]
II: CC1(COc2ccc(C(=O)Nc3ccc(C4CNCCO4)cc3)cc2)COC1 (racemic)
III: O=C(Nc1ccc(CC2CCNC2)cc1)c1ccc(Cl)cc1 (racemic) [Example 149, hydrochloride]
IV: O=C(Nc1ccc(C2CNCCO2)cc1)c1ccc(C(F)(F)F)cn1 (racemic) [Example 141, hydrochloride]
V: COc1cc(C(=O)Nc2ccc([C@H]3CCCNC3)cc2)ccc1Cl [Example 200, hydrochloride]
[in] Please list these in order of increasing Ki. Thank you! Respond with an ordered listing of the labels, as requested.
[out] III, V, IV, I, II
(III: 0.0011 µM, V: 0.0039 µM, IV: 0.0201 µM, I: 0.0507 µM, II: 0.199 µM)

a: Cc1ccc(C(=O)Nc2ccc(C3CCCNC3)cc2)cc1 (racemic) [Example 185, hydrochloride]
b: O=C(Nc1ccc(C2CNCCO2)cc1)c1ccc(O)cc1 (racemic) [Example 199, hydrochloride]
[in] Which has the higher Ki, a or b ? Could you answer with the label of the item you picked?
[out] b
(b: 1.16 µM, a: 0.0333 µM)

a: O=C(Nc1ccc(C2CNCCO2)cc1)NC1CCCCC1 (racemic) [Example 307, hydrochloride]
b: O=C(Nc1ccc(C2CCNC2)cc1)OCc1ccc(F)cc1 (racemic) [Example 47, hydrochloride]
c: CC(C(=O)Nc1ccc(C2CCCNC2)cc1)c1ccc(Cl)cc1 (racemic)
[in] Place the items in sequence of falling Ki. Give the order by naming the labels one after another as requested.
[out] c, a, b
